experiment: gradient 5% acetonitrile 3 min, to 50% in 2 min, to 85% in 15 min, held 3 min, 100 µL/min; details: column: Zorbax Extend-C18 2.1 x 50 mm; eluents: water / acetonitrile, 0.1% formic acid
Reported RP-LC retention time is given for each of the following compounds.
Kindly report the value followed by its unit.

Please review the entries below; each comes with its answer.
compound=Cc1ccc(-c2cc3c(=O)n(Cc4noc(CN5CCCCCCC5)n4)ccn3n2)cc1 quantity_kind="RP-LC retention time" assay_result="757 s"
compound=Cc1ccc(-c2nc(-c3ccc(-n4ccnc4)nc3)no2)cc1C quantity_kind="RP-LC retention time" assay_result="857 s"
compound=COc1ccc2cc(C(=O)Nc3ccc(F)cc3)[nH]c2c1 quantity_kind="RP-LC retention time" assay_result="910 s"
compound=CCCCn1cc(S(=O)(=O)NCc2ccccc2C(F)(F)F)c2cccnc21 quantity_kind="RP-LC retention time" assay_result="1040 s"
compound=CCOc1ccc(NC(=O)CCc2cccc3[nH]ccc23)cc1 quantity_kind="RP-LC retention time" assay_result="875 s"
compound=CC(C)CC(=O)N1CC[C@@H]2COCCN(C)[C@@H]2C1 quantity_kind="RP-LC retention time" assay_result="575 s"
compound=COc1cc(-c2nc3ncccn3c2Nc2ccc3c(c2)OCO3)ccc1O quantity_kind="RP-LC retention time" assay_result="621 s"
compound="O=C(C1CCCN(c2nccnc2Sc2ccccc2)C1)N1CCOCC1 (stereo not given)" quantity_kind="RP-LC retention time" assay_result="850 s"
compound=CC(C)Cn1c(=O)c(N2CCN(C(=O)c3nccc4ccccc34)CC2)nc2ccncc21 quantity_kind="RP-LC retention time" assay_result="646 s"
compound=COc1ccccc1-c1nc2nccc(-c3ccc4c(c3)OCCCO4)n2n1 quantity_kind="RP-LC retention time" assay_result="888 s"

Below: the item to evaluate.
Please look at this compound and report its RP-LC retention time: "CC(=O)Nc1ccc(SCc2ccccn2)nn1" 527 s

* * *

test: gradient 5% acetonitrile 3 min, to 50% in 2 min, to 85% in 15 min, held 3 min, 100 µL/min; conditions: column: Zorbax Extend-C18 2.1 x 50 mm; eluents: water / acetonitrile, 0.1% formic acid
quantity_kind: RP-LC retention time (s)
Numeric answer only, unit s assumed.

Please review the entries below; each comes with its answer.
molecule=Cc1ccc(NC(=O)NCC2CCOCC2)c(C)c1 quantity_kind="RP-LC retention time" assay_result=713
molecule=Cc1ccc(NC(=O)N2CCC3(CC2)NC(=O)c2ccccc2O3)cc1C quantity_kind="RP-LC retention time" assay_result=812
molecule="COc1cc(OC)cc(C(=O)NC2CCN(c3cc(-c4ccc(F)cc4)[nH]n3)C2)c1 (stereo not drawn)" quantity_kind="RP-LC retention time" assay_result=745
molecule=CC(C)OC(=O)COC(=O)c1cn(-c2cccc(F)c2)c(=O)c2ccccc12 quantity_kind="RP-LC retention time" assay_result=1110
molecule=COCc1cc(=O)n(CC(=O)Nc2ccc(C(C)C)cc2)c(N2CCOCC2)n1 quantity_kind="RP-LC retention time" assay_result=960

Please look at this molecule and report its RP-LC retention time: "O=C(NC(c1ccccc1)c1ccccc1)N1CCN(CC(F)(F)F)CC1" 886

Please look at this molecule and report its RP-LC retention time: CN1C(=O)c2cccn2CC1C(=O)NC1CCCCCC1 (stereo not drawn) 731

Please look at this molecule and report its RP-LC retention time: "Brc1ccc(-c2nc(-c3ccn4cnnc4c3)no2)cc1" 929
